Values from ChEMBL document CHEMBL1129269

- Tested target: Adrenergic receptor alpha-1 (Rattus norvegicus, UniProt P15823+P23944+P43140)
- Procedure text: Binding affinity against Alpha-1 adrenergic receptor in rat brain membrane using [3H]prazosin as radioligand
- Type: cell membranes
Measured quantity: IC50 (nM)

Molecule | IC50 [nM]
COc1cccc2c1CCCC2NCCCN1CCN(c2ccccc2)CC1 (stereo not given) | 626

(A) COc1ccccc1N1CCN(CCN(C)C(=O)C2CCCc3c(OC)cccc32)CC1 (stereo not given)
(B) COc1cccc2c1CCCC2NC(=O)CN1CCN(c2ccccc2)CC1 (stereo not given)
Decide: A or B , by lowest recorded IC50. Give the label under which the chosen entry appears.
A
(A: 297 nM, B: 5980 nM)

(I) COc1ccccc1N1CCN(CCCNC(=O)C2CCCc3c(OC)cccc32)CC1 (stereo not given)
(II) COc1cccc2c1CCCC2C(=O)NCCCN1CCN(c2ccccn2)CC1 (stereo not given)
Decide: I or II , by lowest recorded IC50. Give the label under which the chosen entry appears.
I
